Test: Inhibitory activity against beta-glucosidase of sweet almond
pKi: −log10 of the molar value.
Measurement label: pKi

{"columns": ["Substance smiles", "Measurement label", "Result value"],
 "data": [
  ["C[C@@H]1NC[C@@H](CO)[C@@H](O)[C@@H]1O", "pKi", 5.68]
]}

Just for reference, BindingDB's records for doi:10.1016/s0960-894x(99)00042-6 is where these values come from.
